All values here come from PubChem BioAssay AID485360.

target: Lethal(3)malignant brain tumor-like protein 1 (Homo sapiens); test: qHTS Assay for the Inhibitors of L3MBTL1; conditions: AlphaScreen L3MBTL1–H3K9me1 peptide binding; series mostly up to 57.1 µM; note: nearly all actives have a fitted effect of over 60% in size
Screen size: about 230,000 compounds; about 1,500 (0.65%) were called active. Roughly 3% stayed inconclusive and do not appear here. Calls come from the whole dose curve; as a rule, active = well fitted inhibition curve with a large enough effect; inconclusive = small, poorly fitted or top-dose-only effect; inactive = no such curve, though single readings can be large or run the other way. The sample as a whole holds a higher share of actives than the screen did.
// one of active, inactive, no free text

Some entries whose results are on file:
compound: Cc1c(C(=O)O)cccc1-n1c(C)cc(/C=C2\C(=O)NC(=O)N(c3ccc4c(c3)OCO4)C2=O)c1C
assigned.category: active
--
compound: CCN(CC)C(=O)Oc1ccc(NC(=O)N2CCOCC2)cc1
assigned.category: inactive
--
compound: COC(=O)C1=C(c2ccc(Cl)c(C(F)(F)F)c2)C[C@@H]2CC[C@H]1N2C(=O)NC1CC1
assigned.category: inactive

Per the records of this test, what outcome belongs to Oc1ccc2c3c1OC1[C@H](O)CC[C@@]4(O)[C@@H](C2)N(CC2CC2)CC[C@]314 (stereo not given in full) ?
inactive

Please give the result for Cc1ccnc(-n2c(C)cc(/C=C3\C(=O)NC(=S)N(C)C3=O)c2C)c1 too.
inactive

Moving on to the next compound: O=C(NC(=S)N1C[C@H]2C[C@H](C1)c1cccc(=O)n1C2)c1ccc(F)cc1
inactive

Moving on to the next compound: Cc1ccc(-n2c(C)cc(/C=C3\C(=O)NC(=O)N(C)C3=O)c2C)cc1C
inactive

And for COC(=O)C1=C(c2ccc3ccccc3c2)C[C@@H]2CC[C@H]1N2C(=O)NCCO ?
inactive

Okay, and Cc1nc2ccccc2c(=O)n1-c1ccc(Cl)cc1Cl ?
inactive

Ok, now CCN(CC)c1ccc([N+](=O)[O-])c2cccnc12
active
